target: PIK3CB;PIK3CA (UniProt P42338); assay: PI3-Kinase alpha/beta Inhibition
RECORDED_ENDPOINT: IC50

Cc1cc(Oc2cccc3c(=O)cc(N4CCOCC4)oc23)ccc1F: 100 to 150 nM
Cc1cc(Nc2ncccc2C)c2nc(N3CCOCC3)cc(=O)n2c1: 10000 nM
O=c1cc(N2CCOCC2)oc2c(OCc3cccnc3)cccc12: 1000 nM
O=c1cc(N2CCOCC2)oc2c(O)cccc12: 25000 nM
Cc1cc(-c2ccsc2)c2nc(N3CCOCC3)cc(=O)n2c1: 1000 nM

Next item in the queue.
Consider the compound Cc1cc(NCC2CCNCC2)c2nc(N3CCOCC3)cc(=O)n2c1 . State its measured IC50. 1000 nM
